The reader will find reported inhibition at 1 µM values listed item by item below.
# MEASUREMENT TARGET: MAO-B (Homo sapiens)
# Construct: purchased Merck MAK296
# Sequence (P27338 whole entry, species assumed): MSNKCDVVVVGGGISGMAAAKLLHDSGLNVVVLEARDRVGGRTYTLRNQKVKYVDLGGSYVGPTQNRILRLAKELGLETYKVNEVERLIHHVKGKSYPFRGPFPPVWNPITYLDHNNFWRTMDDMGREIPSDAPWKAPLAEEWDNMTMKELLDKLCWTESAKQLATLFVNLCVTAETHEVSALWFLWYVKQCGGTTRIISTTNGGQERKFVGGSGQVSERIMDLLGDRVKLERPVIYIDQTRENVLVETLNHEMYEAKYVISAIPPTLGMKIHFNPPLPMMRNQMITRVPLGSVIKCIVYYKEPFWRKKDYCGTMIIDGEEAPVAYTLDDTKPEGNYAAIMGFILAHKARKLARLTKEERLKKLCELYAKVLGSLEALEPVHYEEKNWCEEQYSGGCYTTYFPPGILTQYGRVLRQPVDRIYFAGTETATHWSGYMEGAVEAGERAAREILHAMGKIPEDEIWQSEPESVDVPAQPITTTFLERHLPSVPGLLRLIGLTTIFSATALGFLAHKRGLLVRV
# TEST: Monoamine Oxidase-B Inhibitor Screening Kit (Merck, MAK296), fluorometric assay
# Type: biochemical
# MEASUREMENT SETUP: concentration 1 uM
Report only the number, with the unit % understood.

INSERT INTO results (compound, result_unit, measurement) VALUES
  ('Cc1csc(N/N=C/c2cc(Cl)ccc2Cl)n1', '%', 3.45),
  ('O=c1c(-c2ccccc2)coc2cc(O)cc(O)c12', '%', 0),
  ('CCc1ccc(Nc2ncc3c(n2)CC(C)CC3=O)cc1 (stereo not drawn)', '%', 40),
  ('CC(=O)NCC1CN(c2ccc(N3CCOCC3)c(F)c2)C(=O)O1 (stereo not drawn)', '%', 59),
  ('O=C(Nc1ccc(Cl)cc1)C1=Cc2ccccc2OC1', '%', 0),
  ('Cc1ccc(/C=N/Nc2nc3ccccc3nc2Cc2ccccc2)cc1', '%', 0),
  ('CC(=O)Nc1ccc2c(c1)-c1ccccc1C2=O', '%', 0),
  ('O=c1oc2cc(OCc3cccc(Cl)c3)ccc2c2c1CCC2', '%', 91.3);

--- query ---
Input: Provide MAO-B (Homo sapiens) inhibition at 1 µM reading for COc1ccc(C2=NN(C(C)=O)C(c3ccccc3)C2)c(O)c1 (stereo not drawn) .
Output: 0
